assay: binders of probe aHhip on microarray, primary screen, stem cell growth factor project, biochemical, small-molecule microarray, fluorescence 635/667 (AID 1087); conditions: higher = more signal;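 note: score merges spot fluorescence at 667nm with spot signal to noise ratio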
reported_metric: composite z-score

Q. Recorded composite z-score for `C[C@@H](c1ccccc1)N1C(=O)[C@H]2[C@H]3[C@H](O)[C@H](O)CC(=NOCc4ccccc4)[C@@H]3CC[C@H]2C1=O` , please?
A. -0.0672

Q. Then `O=C1[C@H]2[C@H]3[C@H](O)[C@H](O)CC(=NO[C@@H]4O[C@H](CO)[C@@H](O)[C@H](O)[C@H]4O)[C@@H]3CC[C@H]2C(=O)N1c1cccc(Oc2ccccc2)c1` ?
A. 0.0373

Q. Cool, now CCOC(=O)[C@H](Cc1ccccc1)NC(=O)CCC1CC(OC(=O)NCc2ccc3c(c2)OCO3)CC2(CCCC(COC(=O)NCCOC)O2)O1 (stereo partly specified)
A. 0.524

Q. Next entry: `COc1ccc(COC(=O)NN=C2C[C@@H](O)[C@@H](O)[C@@H]3[C@@H]4C(=O)N(Cc5ccc6c(c5)OCO6)C(=O)[C@@H]4CC[C@H]23)cc1`
A. 0.0373

Q. Another compound to check: COCCNC(=O)OCC1CCCC2(CC(OC(=O)NCc3cccc4ccccc34)CC(CCC(=O)N[C@@H](C)C(=O)OC)O2)O1 (stereo partly specified)
A. -0.0994

Q. And `COc1ccc(COC(=O)NN=C2C[C@@H](O)[C@@H](O)[C@@H]3[C@@H]4C(=O)N(C5CCCCC5)C(=O)[C@@H]4CC[C@@H]23)cc1` ?
A. -0.48

----------
assay: basal MM1S mitochondrial membrane potential changes, profiling panel, cell-based, JC-1 fluorescence, 24 h, 100 nL compound (AID 1170); settings: higher = more signal; note: test concentration not given here
Returns TRUE if the recorded z-score is greater than or equal to 0.7, and FALSE otherwise.

Q. Is it the case that `C[C@@H]1CC[C@H]2C(=O)N3[C@@H](CC[C@@H](C)[C@@H]3c3ccc(Br)cc3)C(=O)N2[C@H]1c1ccc(Br)cc1` has z-score reaching or exceeding 0.7?
A. TRUE

Q. Also need `COc1ccc(COC(=O)NN=C2C[C@@H](O)[C@@H](O)[C@@H]3[C@@H]4C(=O)N(C(C)(C)C)C(=O)[C@@H]4CC[C@@H]23)cc1` , thanks.
A. FALSE

Q. Now the same for `C[C@@H]1C=CCC(=O)OC[C@H](C)C(=O)N[C@@H](Cc2ccccc2)C(=O)OC1`
A. FALSE

Q. Next: `CO[C@H]1COC(=O)CC=C[C@@H](C)COC(=O)[C@H]2CCCN2C(=O)CC=C[C@H]1C`
A. TRUE

Q. Further, for Cc1cc2c(nc1C)CCCCN2CC(O)CN1CCCc2nc(-c3ccc(Br)cc3)ccc21 (stereo not drawn) ?
A. FALSE

Q. And for `COc1ccc(O[C@H]2C=C[C@@H](c3ccccc3)O[C@@H]2COC(=O)CCC(C)=NOC[C@@H](O)COCc2ccco2)cc1` ?
A. FALSE

Q. Record: `CC(CCN1CCCc2nc(C)c(C)cc21)=NO[C@H](C)c1cn([C@@H]2COC[C@H]2O)nn1`
A. FALSE

Q. Same question for COC(=O)C(C(=O)OC)C1CCCC(=O)C1 (stereo not drawn) please.
A. TRUE

----------
Provide the recorded z-score for the entries that follow.
target: Homeobox protein Hox-A13 (Mus musculus) (UniProt Q62424); assay: inhibitors of HoxA13-DNA binding, primary screen, biochemical, fluorescence polarization, labeled oligonucleotide (AID 1185); details: 15 min, higher = more signal, called active from +8 up or from −8 down
Sequence (Q62424 whole entry, looked up): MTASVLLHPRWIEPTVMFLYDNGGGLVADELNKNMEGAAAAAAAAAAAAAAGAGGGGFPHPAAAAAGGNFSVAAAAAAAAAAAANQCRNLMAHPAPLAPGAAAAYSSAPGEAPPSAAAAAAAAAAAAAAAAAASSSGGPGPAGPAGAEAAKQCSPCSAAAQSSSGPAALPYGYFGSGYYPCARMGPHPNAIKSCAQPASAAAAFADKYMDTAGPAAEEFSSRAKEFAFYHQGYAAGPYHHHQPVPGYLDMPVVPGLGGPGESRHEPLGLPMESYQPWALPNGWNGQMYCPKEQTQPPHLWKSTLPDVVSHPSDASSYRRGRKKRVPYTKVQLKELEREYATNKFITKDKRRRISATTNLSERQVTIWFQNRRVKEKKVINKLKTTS
// response body must contain only the number

Q. Request - read-out z-score | tested on Homeobox protein Hox-A13 (Mus musculus) (UniProt Q62424) | molecule `COc1ccc(O[C@H]2C=C[C@@H](c3ccccc3)O[C@@H]2CO)cc1`
A. -1.6

Q. Now give it for CCOC(=O)[C@H](CC(C)C)NC(=O)CCC1CC(OC(=O)NCc2ccc3c(c2)OCO3)CC2(CCCC(COC(=O)NCCc3ccc(Cl)cc3)O2)O1 (stereo partly drawn) too.
A. -6.16

Q. Could you do the same for `CCN1C(=O)[C@H]2[C@@H]3C(=CC[C@H]2C1=O)C(=O)[C@H]1O[C@H]1[C@H]3O` , please?
A. -6.04

Q. Then COC(=O)[C@H](C)NC(=O)CCC1CC(OC(=O)NCCc2ccc(F)cc2)CC2(CCCC(COC(=O)NCc3ccccc3)O2)O1 (stereo partly drawn) ?
A. -1.56

Q. Now give it for `CCN1C(=O)[C@H]2[C@H]3[C@H](O)[C@H](O)CC(=NOCC[C@@H]4C=C[C@H](OC(C)=O)[C@@H](COC(C)=O)O4)[C@@H]3CC[C@H]2C1=O` too.
A. -1.8

Q. Let us now turn to `CCOC(=O)CCN1C(=O)[C@H]2[C@H]3[C@H](O)[C@H](O)CC(=NNC(=O)OCc4ccc(OC)cc4)[C@H]3CC[C@H]2C1=O`
A. -3.67

Q. Would you mind doing C=CCOCC1CN2[C@@H](CC[C@@H](C)[C@@H]2c2ccc(Br)cc2)C(=O)O1 (stereo partly drawn) as well?
A. -0.43

Q. What do you have for `CON=C(C)CCN1CCCc2nc(C)c(C)cc21` ?
A. -7.51

----------
experiment: mitochondrial membrane potential change in A549 cells, profiling panel, cell-based, JC-1 fluorescence, basal, 24 h, 100 nL (AID 1138); conditions: higher = more signal;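 note: A549 lung adenocarcinoma cells under basal conditions with no added stimulus; test concentration not given here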
Answer each item with its documented z-score.

Q. Sample `CCOC(=O)CCN1C(=O)[C@H]2[C@H]3[C@H](O)[C@H](O)CC(=NNC(=O)OCc4ccccc4)[C@H]3CC[C@H]2C1=O` — what was its z-score?
A. -0.674

Q. Do the same for `CC(CCN1CCc2nc(-c3ccccc3)c(-c3ccccc3)cc2C1)=NO[C@@H](C)c1cc(-c2c(C)cc(C)cc2C)no1` please
A. 0.281

Q. Please do the same for `CC(CCN1CCCCc2nc(C)c(C)cc21)=NO[C@@H](C)c1cc(-c2c(C)cc(C)cc2C)no1` as well.
A. 1.91

Q. Also check CC(=O)OC[C@H]1O[C@H](CC=NOC(C)CN2CCCCc3nc(C)c(C)cc32)C=C[C@@H]1OC(C)=O (some centres not stated)
A. -0.683

Q. Same again, this time with `COC(=O)[C@@H]1CC[C@H](C)[C@@H](c2ccc(Br)cc2)N1C[C@@H](O)CN=[N+]=[N-]`
A. -0.822

Q. Next compound up: `O=C1[C@H]2[C@H]3[C@H](O)[C@H](O)CC(=NOC[C@@H](O)COCc4ccco4)[C@@H]3CC[C@H]2C(=O)N1C1CCCCC1`
A. -0.144

Q. And then `CC(C)=CCCC(C)=CCON=C1C[C@@H](O)[C@@H](O)[C@@H]2[C@@H]3C(=O)N(Cc4ccc5c(c4)OCO5)C(=O)[C@@H]3CC[C@H]12` , what is it?
A. -0.564

----------
target: Alpha-bungarotoxin (Bungarus multicinctus) (UniProt P60615); test: alpha-bungarotoxin binders on microarray, profiling panel, artefact control for SMM control protein annotation, biochemical, small-molecule microarray, Alexa647 label, 635/667 nm fluorescence (AID 1117); settings: alpha-BTX-A647 binding fluorescence, higher = more signal
Sequence (P60615 whole entry, looked up): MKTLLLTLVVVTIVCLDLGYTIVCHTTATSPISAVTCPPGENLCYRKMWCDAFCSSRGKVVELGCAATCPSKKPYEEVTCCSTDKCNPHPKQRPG
Given measured composite z-score, output met if it is greater than or equal to 0.3 and not met if not.

Q. Determine whether this compound has composite z-score no lower than 0.3: `CC(=O)OC[C@H]1O[C@H](CC=NO[C@H](C)c2cn([C@@H]3COC[C@H]3O)nn2)C=C[C@@H]1OC(C)=O`
A. met

Q. Similarly, `CC(CCN1CCCc2nc(C)c(C)cc21)=NOC[C@@H](O)COCc1ccco1` ?
A. met

Q. Another compound: `CCOC(=O)CCN1C(=O)[C@H]2[C@H]3[C@H](O)[C@H](O)CC(=O)[C@@H]3CC[C@H]2C1=O`
A. met

Q. Moving on to COC(=O)[C@H](C)NC(=O)CCC1CC(OC(=O)NCc2cccc3ccccc23)CC2(CCCC(COC(=O)NCCC(C)C)O2)O1 (stereo not given in full)
A. not met

Q. Note, next up: CCOC(=O)[C@H](Cc1ccccc1)NC(=O)CCC1CC(OC(=O)NCc2ccc3c(c2)OCO3)CC2(CCCC(COC(=O)NCCc3ccc(Cl)cc3)O2)O1 (stereo not given in full)
A. met

Q. Same for `CC[C@@H](c1ccccc1)n1c(=O)n2n(c1=O)[C@H]1[C@H](O)[C@@H]3O[C@@H]3C(=NOCc3ccccc3)[C@H]1CC2`
A. met

Q. // query: `C[C@@H]1CC[C@H]2C(=O)N3[C@@H](CC[C@@H](C)[C@@H]3c3ccc(Br)cc3)C(=O)N2[C@H]1c1ccc(Br)cc1`
A. met

Q. Note, next up: `CC(C)=CCCC(C)=CCON=C1C[C@@H](O)[C@@H](O)[C@@H]2[C@@H]3C(=O)N([C@@H](C)c4ccccc4)C(=O)[C@@H]3CC[C@@H]12`
A. met

Q. Same again, this time with `COc1cccc([C@H](O)Cn2cc(-c3ccc(CON=C(C)C)cc3)nn2)c1`
A. not met

Q. For CCOC(=O)[C@H](CC(C)C)NC(=O)CCC1CC(OC(=O)NCCc2ccc(F)cc2)CC2(CCCC(COC(=O)NCCCN3CCCC3=O)O2)O1 (stereo not given in full) then?
A. met

Q. Can you handle `COC(=O)[C@H](Cc1ccccc1)NC(=O)[C@@H](C)CO` next?
A. not met

Q. Moving on to `COc1ccc(COC(=O)NN=C2C[C@@H](O)[C@@H](O)[C@@H]3[C@@H]4C(=O)N(C[C@@H]5CCCO5)C(=O)[C@@H]4CC[C@H]23)cc1`
A. met

Q. Follow-up entry: `CCOC(=O)CCN1C(=O)[C@H]2[C@H]3[C@H](O)[C@H](O)CC(=NNC(=O)OCc4ccc(OC)cc4)[C@H]3CC[C@H]2C1=O`
A. met

Q. Here is the next compound: `COc1ccc(OC[C@H]2CN3[C@@H](CC[C@@H](C)[C@@H]3c3ccc(Br)cc3)C(=O)O2)cc1`
A. met
